Values from PubChem BioAssay (NCI)

So I've got a bunch of molecules here, and I need their growth inhibition values.
test: NCI Yeast Anticancer Drug Screen. Data for the mlh1 rad18 strain (AID 175); conditions: S. cerevisiae mlh1 rad18 strain growth inhibition; at 50.0 µM (retest, dose inferred, filed as 5.0); hits give high values
This is part of a sample that, as a whole, favours compounds with a hit. Of some 79,000 tested, about 15% had one in any assay.
One number for each entry, in %.

>>> df
                                   molecule             metric  reported_value
0  O=C1CCC(Cc2ccc(Br)cc2)C(=O)N1 (stereo unspecified)  growth inhibition               5
1  CC(=O)O[C@@H]1c2c(c3c(=O)c4cccc(O)c4c(=O)c=3c2=[N+]=[N-])[C@H](OC(C)=O)[C@@H](OC(C)=O)[C@]1(C)O  growth inhibition              99
2  CC(C)(C)N1OC2(c3ccccc3)OC3N(C(C)(C)C)OC4(c5ccccc5)OC1C2(c1ccccc1)C34c1ccccc1 (stereo unspecified)  growth inhibition              99
3          Oc1cc(Cc2ccccc2)c(Cc2ccccc2)cc1O  growth inhibition              96
4  CN(C)CCC1(C2=CCCC2)CC/C(=C\c2ccc(Cl)cc2)C1=O (stereo unspecified)  growth inhibition              97

// growth inhibition lookup, molecule = "O=[N+]([O-])c1cccc(C=Nc2ccccc2O)c1" , result: 48

* * *

Provide the recorded growth inhibition for the entries that follow.
test: NCI Yeast Anticancer Drug Screen. Data for the cln2 rad14 strain (AID 165);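 further: 0% = growth equal to vehicle treated cultures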; details: S. cerevisiae cln2 rad14 strain, at 50.0 µM (retest, dose inferred, filed as 5.0), hits give high values
About 79,000 compounds went through this panel and 15% of them were active in at least one assay; those are over-represented in the sample as a whole.
Answers are plain numbers, in %.

Known growth inhibition results, listed for orientation:
>>> df
                                   compound             metric  unit_text  reported_value
0    O=C1c2ccccc2C(=O)c2c1cccc2[N+](=O)[O-]  growth inhibition          %              86
1  CC1C(=O)C(Br)CC2C1(C)CCC1C2(C)CCC2(C)C3CC(C)(C)CCC3(C)CCC12C (configuration not stated)  growth inhibition          %               6
2         Cc1ccc(-c2ccccc2)n1-c1cc(Cl)ccc1O  growth inhibition          %              99

// each compound listed below needs its growth inhibition
1. COC(=O)C(=O)C(/C=N/C(=S)NCCc1ccc(OC)c(OC)c1)=C(/O)c1ccc([N+](=O)[O-])cc1
2. O=C(Nc1ccccc1Cl)c1ccc(Cl)c(Cl)c1
3. Cn1c(=S)c2[nH]c(SCc3ccncc3)nc2n(C)c1=O
4. O=C1/C(=C/c2cccc(F)c2)CCCc2ccccc21
5. Cc1ccc(NC(=S)SCc2ccc(Cl)cc2)cc1Cl
6. Clc1nn2nnnc2c2ccccc12
7. CCS(=O)(=O)C(C(O)C(O)C(O)C(O)CO)S(=O)(=O)CC (configuration not stated)
8. COc1ccc(C(=O)C2=C(C)Nc3ccc(Br)cc3S2)cc1

Solution:
[-11, -2, -12, 14, 98, 24, -10, 16]
